Property: melting point

COC(=O)C(Cc1ccc(OCCN(C)c2nc3ccccc3o2)cc1)Oc1ccc(Cl)cc1 (stereo not drawn): 88 to 90 °C
COC(=O)c1cc(N)ccc1O: 93 to 95 °C
COc1cc(C(=O)Nc2cc(-c3c(-c4ccc(F)c(C)c4)nc4cccnn34)ccn2)ccc1F: 217 to 218 °C

Give measured melting point for every item shown.
1. CC(=O)Oc1ccc(C(=O)NOCc2ccccc2)cc1
2. O=C1c2cc([N+](=O)[O-])ccc2OCCN1CCO
3. COc1cc(C=CC(=O)OC2CC3CC(OC(=O)c4cc(OC)c(OC)c(OC)c4)CC2N3C)cc(OC)c1OC (stereo not drawn)
4. COc1ccsc1S(=O)(=O)Nc1nc2c(OC)cnc(OC)n2n1
5. Cc1nc2cc(Sc3cccc4cnccc34)c([N+](=O)[O-])cc2s1

1. 120 to 122 °C
2. 151 °C
3. 40 to 42 °C
4. 227 to 228 °C
5. 217 to 220 °C

Give measured melting point for every item shown.
1. CCCCc1ccc(C(=O)NCCCCn2c(CCOC)nc3c(N)nc4ccccc4c32)nc1
2. CC(=O)C1CCC2C3CCC4CC(F)CCC4(C)C3CCC12C (stereo not drawn)
3. O=C(NCc1ccc(C(F)(F)F)cc1)c1cnc(Cl)nc1N1CCCC1
4. COc1c(OS(C)(=O)=O)ccc2[nH]ncc12
5. COc1cc(Nc2nccc(-c3ccc(NCCN)nc3)n2)cc(OC)c1OC
6. CCOC(=O)Nc1cc(F)c(C#N)cc1F
7. Nc1ccc(-n2cnc(-c3ccc(C(F)(F)F)cc3)n2)cc1Cl

["54.9 to 55.2 °C", "154 to 155 °C", "170 to 171 °C", "130 to 131 °C", "117 to 118 °C", "107 °C", "148 °C"]

Give measured melting point for every item shown.
1. O=C(O)C1CCc2c(oc3ccc([N+](=O)[O-])cc23)C1 (stereo not drawn)
2. CN(CCc1ccccc1)C(=O)Cn1cc(C=C(C(=O)O)C(C)(C)C)c2cc([N+](=O)[O-])ccc21
3. N=C(N)c1ccc2cc(OC(=O)CCCCCNC(=O)OCc3ccccc3)ccc2c1

["229 to 232 °C", "140 to 143 °C", "119 to 122 °C"]

Give measured melting point for every item shown.
1. CC12CC(=O)C3C(CCC4CC(=O)CCC43C)C1CCC2C(=O)CO (stereo not drawn)
2. CCCCCCCCCCc1nnnn1CC(=O)O
3. CC(=O)C1=C(O)C(=C(C)Nc2ccc(F)cc2)C(=O)OC1=O
4. O=C(Nc1ccc(Cl)c(Cl)c1)ONC1=Nc2ccc([N+](=O)[O-])cc2C(c2ccccc2Cl)=NC1
5. Cc1nc2nc(/C=C3/C(=O)N4C(C(=O)O)=CS[C@H]34)nn2c2c1CCCC2
6. Cc1ccc(C)c(C2CC(=O)C=C(N)C2)c1 (stereo not drawn)
7. CC(CN1CCOCC1)C(=O)c1ccc(C(C)(C)C)cc1 (stereo not drawn)
8. O=C(O)c1ccc(C(=O)c2ccc(Br)cc2)cc1

164 to 170 °C
104 to 106 °C
199 to 201 °C
190 to 192 °C
250 °C
169 to 170 °C
71 to 73 °C
270 to 271 °C

Recorded values, source a melting point compilation (Tetko et al.; mined from patent text by program, amines drawn as free bases though some values may be those of a salt).
